# Experimental Target: H3 receptor (Cavia porcellus, UniProt Q9JI35)
# Construct: The source of the H3 receptors in this experiment was guinea pig brain; from tissue; host or cells: guinea pig brain membranes
# Sequence (Q9JI35 whole entry): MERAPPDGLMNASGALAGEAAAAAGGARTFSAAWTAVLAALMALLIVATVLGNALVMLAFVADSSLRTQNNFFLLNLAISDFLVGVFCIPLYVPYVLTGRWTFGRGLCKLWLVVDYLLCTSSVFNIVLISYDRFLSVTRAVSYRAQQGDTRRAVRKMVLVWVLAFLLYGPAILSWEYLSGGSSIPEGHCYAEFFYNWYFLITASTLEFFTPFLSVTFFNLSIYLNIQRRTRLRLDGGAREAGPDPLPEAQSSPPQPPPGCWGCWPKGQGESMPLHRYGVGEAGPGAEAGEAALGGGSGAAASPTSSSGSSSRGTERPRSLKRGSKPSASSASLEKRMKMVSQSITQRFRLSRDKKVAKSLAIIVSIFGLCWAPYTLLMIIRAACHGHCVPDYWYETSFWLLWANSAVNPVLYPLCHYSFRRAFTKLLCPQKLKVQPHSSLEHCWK
# Assay Details: H3 Receptor Binding Assay (guinea pig brain membranes, [3H]R-α-methylhistamine or [3H]-N-methylhistamine)
# Experimental Parameters: 3 nM radioligand, 30° C., 30 min
pKi: −log10 of the molar value.
Parameter Measured: pKi

P = O=C(NCCCCCc1c[nH]cn1)C1CNCCN1 (stereo not shown)
Q = O=C(/C=C/c1ccccc1)N1CCN(CCCCc2c[nH]cn2)CC1
-- ask Which record shows the lower pKi: the first, P , or the second, Q ? Return value: the label identifying the chosen record.
-- reply P
(P: 7.41, Q: 8.22)

Reference source: patent US6211182A
